Experiment: TOR pathway RPL19A-GFP modulators, concentration series – cell-based, S. cerevisiae, flow cytometry, MLPCN hits, dose response (AID 2740);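 further: background is signal of the same compound in parental non-GFP s288c yeast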
Condition Label: S. cerevisiae RPL19A-GFP strain, flow cytometry fluorescence, 3 h; at 33 µM (top of the series)
Measurement Kind: GFP fluorescence, lower = active (kMESF (background-subtracted))
Lab note: write the figure by itself, no unit.

Here are 5 molecules together with their reported answers.
CC[C@@]1(c2ccccc2OC)ON(c2ccccc2C(F)(F)F)C1=O :: 35.9
COC(CNC(=O)c1ccc2c3c(onc13)-c1ccccc1C2=O)OC :: 14.8
CCOC(=O)CSC1=NC(=O)/C(=C/c2ccc(Br)cc2)S1 :: 38.5
O=C1c2cccc3c([N+](=O)[O-])ccc(c23)C(=O)N1c1ccccn1 :: 55.8
Oc1ccc2ccccc2c1/C=N/Nc1nnc(-c2ncc[nH]2)c2ccccc12 :: 4.23

Could you now consider this next molecule?
Report GFP fluorescence, lower = active (kMESF (background-subtracted)) for `O=C1Nc2ccccc2/C1=C\C(=O)c1ccccc1` please.
34.2
